Molecular target: GSG2 (human) (UniProt Q8TF76)
Sequence (Q8TF76 whole entry, looked up): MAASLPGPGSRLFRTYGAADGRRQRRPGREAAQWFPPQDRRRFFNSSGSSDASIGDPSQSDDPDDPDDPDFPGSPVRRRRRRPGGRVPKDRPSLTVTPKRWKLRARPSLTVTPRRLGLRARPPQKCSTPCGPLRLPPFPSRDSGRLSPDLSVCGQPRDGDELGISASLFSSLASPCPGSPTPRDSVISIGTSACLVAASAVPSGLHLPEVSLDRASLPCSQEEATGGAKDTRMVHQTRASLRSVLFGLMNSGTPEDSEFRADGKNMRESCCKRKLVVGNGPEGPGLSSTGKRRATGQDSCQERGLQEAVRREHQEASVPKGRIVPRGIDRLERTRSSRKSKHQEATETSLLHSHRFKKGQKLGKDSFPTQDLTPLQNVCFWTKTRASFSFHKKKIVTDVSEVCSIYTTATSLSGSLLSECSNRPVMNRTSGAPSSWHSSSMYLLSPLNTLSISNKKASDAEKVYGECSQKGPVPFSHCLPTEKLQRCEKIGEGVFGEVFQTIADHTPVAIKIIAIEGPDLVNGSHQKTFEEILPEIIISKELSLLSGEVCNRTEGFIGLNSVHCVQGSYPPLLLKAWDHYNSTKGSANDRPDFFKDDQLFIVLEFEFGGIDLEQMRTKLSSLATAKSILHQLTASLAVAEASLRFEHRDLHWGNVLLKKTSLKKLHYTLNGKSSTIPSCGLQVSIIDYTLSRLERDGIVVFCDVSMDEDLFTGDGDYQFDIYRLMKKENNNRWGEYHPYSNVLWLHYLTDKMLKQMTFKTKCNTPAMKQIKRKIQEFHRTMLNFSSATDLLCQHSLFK
Test: Caliper, Mobility shift assay off-chip
Conditions: compound 0.02 µM
property.name: inhibition (%)
Express it in %; write the number only.

Record excerpt, results attached:
Which value of inhibition has been reported for COc1cc2c(Oc3ccc4[nH]c(C)cc4c3F)ncnc2cc1OCCCN1CCCC1 in the records?
0.4

Which value of inhibition has been reported for Cc1ccc(Nc2nccc(N(C)c3ccc4c(C)n(C)nc4c3)n2)cc1S(N)(=O)=O in the records?
-1.1

Which value of inhibition has been reported for CNC(=O)c1cc(Oc2ccc(NC(=O)Nc3ccc(Cl)c(C(F)(F)F)c3)cc2)ccn1 in the records?
-3

New cases:
Which value of inhibition has been reported for CNC(=O)c1ccccc1Sc1ccc2c(/C=C/c3ccccn3)n[nH]c2c1 in the records?
-0.9
